Tested on: LXRb homodimer (NR concentration 270 nM)
experiment notes: PBM binding z-score (relative to random genomic background probes); higher = stronger binding; sequences stand for … in GC…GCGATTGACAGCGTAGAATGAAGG
Label Criterion met when PBM binding z-score >= -0.3; otherwise Criterion not met.

See these solved cases before continuing.
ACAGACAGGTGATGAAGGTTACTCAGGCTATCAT : Criterion met
CGTCCAAGGTCAATCCTAGGTCAGTGAAAGCATT : Criterion met
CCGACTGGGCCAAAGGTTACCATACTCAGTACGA : Criterion not met
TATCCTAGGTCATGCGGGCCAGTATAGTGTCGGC : Criterion met
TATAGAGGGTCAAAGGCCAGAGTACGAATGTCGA : Criterion met

Asked: Evaluate `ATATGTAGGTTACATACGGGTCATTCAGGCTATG` : PBM binding z-score at minimum -0.3?
Given back: Criterion met

Asked: Form field: PBM binding z-score at least -0.3? Entry: `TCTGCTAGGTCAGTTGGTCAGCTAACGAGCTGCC`
Given back: Criterion met

Asked: Record `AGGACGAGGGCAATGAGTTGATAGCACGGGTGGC` ; criterion: PBM binding z-score no lower than -0.3. Met?
Given back: Criterion not met

Asked: Say whether `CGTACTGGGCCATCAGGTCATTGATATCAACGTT` shows PBM binding z-score of -0.3 or more.
Given back: Criterion met

Asked: Is reported PBM binding z-score greater than or equal to -0.3 here: `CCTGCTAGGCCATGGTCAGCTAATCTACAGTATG`
Given back: Criterion not met

Asked: Tell me whether PBM binding z-score is at least -0.3 here: `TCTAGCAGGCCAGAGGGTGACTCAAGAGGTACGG`
Given back: Criterion not met

Asked: Determine whether measured PBM binding z-score meets or exceeds -0.3 for `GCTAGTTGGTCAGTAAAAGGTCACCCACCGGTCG`
Given back: Criterion met

Asked: Hi team, for `AATACAGGGTCACTAGGCCAAAGTAGGTACGAAT` , is the recorded PBM binding z-score at or above -0.3?
Given back: Criterion met

* * *

System: PXR homodimer (NR concentration 270 nM)
experiment notes: PBM binding z-score (relative to random genomic background probes); higher = stronger binding; sequences stand for … in GC…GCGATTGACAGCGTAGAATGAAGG
Rule: condition met for PBM binding z-score not less than 0.3, condition not met for anything less.

Use the examples below as a reference point.
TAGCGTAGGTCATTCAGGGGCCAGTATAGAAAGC : condition not met
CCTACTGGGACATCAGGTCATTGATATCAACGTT : condition met
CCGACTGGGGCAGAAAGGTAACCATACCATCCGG : condition not met
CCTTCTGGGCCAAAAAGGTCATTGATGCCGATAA : condition met

Asked: Answer whether PBM binding z-score of `GCTTGTAGATCAAGGTTAACAAAGACTAAGCTAA` is greater than or equal to 0.3.
Given back: condition not met

* * *

# PBM binding z-score annotations
Test system: RXRa DBDmut IVT, anti-RXR (DBD mutation: RXRa K156A/R161A, NR concentration 90 nM)
experiment notes: PBM binding z-score (relative to random genomic background probes); higher = stronger binding; sequences stand for … in GC…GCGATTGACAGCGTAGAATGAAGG
Please reply with the value in numeric form only.

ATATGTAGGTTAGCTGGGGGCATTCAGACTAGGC : 1.71
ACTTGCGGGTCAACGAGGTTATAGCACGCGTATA : 2.41
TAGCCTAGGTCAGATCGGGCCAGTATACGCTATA : -0.634
CGAACCAGGTCAGAACAGGACAGTGAAGGATGAT : 0.868

Asked: Report measured PBM binding z-score; entry is `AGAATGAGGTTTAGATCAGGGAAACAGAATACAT`
Given back: -0.146

Asked: Tell us which PBM binding z-score value is on record for `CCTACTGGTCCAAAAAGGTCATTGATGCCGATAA`
Given back: 1.56

Asked: Quick one: give measured PBM binding z-score for `ACTAGTTGGTCAGCTGAGGTCACACATAATTCGG`
Given back: 1.13

Asked: Name the recorded PBM binding z-score of the sequence listed here: `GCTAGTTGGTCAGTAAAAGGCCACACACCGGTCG`
Given back: -0.169

Asked: // Input: `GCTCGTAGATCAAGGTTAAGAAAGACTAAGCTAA` . Output its PBM binding z-score only.
Given back: -0.285

Asked: State its PBM binding z-score: `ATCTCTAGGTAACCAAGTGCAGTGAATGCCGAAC`
Given back: 0.0153

Asked: Answer with the recorded PBM binding z-score for the sequence listed here: `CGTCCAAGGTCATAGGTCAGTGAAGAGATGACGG`
Given back: 3.61

Asked: Supply recorded PBM binding z-score for `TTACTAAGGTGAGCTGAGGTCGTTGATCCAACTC` here.
Given back: 0.464

* * *

Tested on: FXR:RXRa (NR concentration 270 nM, RXRa partner concentration 90 nM)
experiment notes: PBM binding z-score (relative to random genomic background probes); higher = stronger binding; sequences stand for … in GC…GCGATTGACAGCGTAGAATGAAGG
Listing of recorded PBM binding z-score by entry.
Just the number.

Reference set (3 entries):
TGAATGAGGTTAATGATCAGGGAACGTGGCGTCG : 1.4
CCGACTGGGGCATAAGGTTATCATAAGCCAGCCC : 0.297
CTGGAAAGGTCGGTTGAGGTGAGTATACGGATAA : 2.81

Asked: Output measured PBM binding z-score for this item: `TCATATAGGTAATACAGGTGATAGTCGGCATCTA`
Given back: 0.719

Asked: Let me know recorded PBM binding z-score for `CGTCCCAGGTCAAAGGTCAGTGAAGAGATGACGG` , thanks.
Given back: 7.79

Asked: Tell me its PBM binding z-score given `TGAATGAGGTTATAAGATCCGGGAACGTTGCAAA` as the entry.
Given back: 1.15

Asked: Could you please provide reported PBM binding z-score for `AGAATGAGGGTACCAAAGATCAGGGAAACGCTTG` ? Thanks!
Given back: -0.148

Asked: Retrieve PBM binding z-score measured for `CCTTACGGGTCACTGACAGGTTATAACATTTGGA` and print it.
Given back: 5.58

Asked: Give the measured PBM binding z-score for `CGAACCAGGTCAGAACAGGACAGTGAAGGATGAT`
Given back: 2.83

Asked: State its PBM binding z-score for this sequence: `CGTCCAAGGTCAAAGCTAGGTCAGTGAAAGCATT`
Given back: 7.24

Asked: Give the value of PBM binding z-score reported for the following: `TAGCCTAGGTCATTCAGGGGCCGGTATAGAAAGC`
Given back: 4.65

Asked: State, in one line, measured PBM binding z-score of `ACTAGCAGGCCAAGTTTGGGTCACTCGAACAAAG`
Given back: 0.398

Asked: Let me know recorded PBM binding z-score for `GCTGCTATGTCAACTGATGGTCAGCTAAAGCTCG` , thanks.
Given back: -0.296

* * *

System: LXRb homodimer (NR concentration 270 nM)
experiment notes: PBM binding z-score (relative to random genomic background probes); higher = stronger binding; sequences stand for … in GC…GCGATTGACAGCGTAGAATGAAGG
Rule: yes (1) for PBM binding z-score not less than 0.4, no (0) for anything less.

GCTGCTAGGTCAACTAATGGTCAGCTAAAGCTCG : no (0)

Asked: Does the sequence `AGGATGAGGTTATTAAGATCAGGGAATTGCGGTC` have recorded PBM binding z-score that is 0.4 or more?
Given back: yes (1)

Asked: Entry `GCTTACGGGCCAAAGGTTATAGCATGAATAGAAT` : is its PBM binding z-score no less than 0.4?
Given back: no (0)

Asked: Reported PBM binding z-score reaches at least 0.4 for `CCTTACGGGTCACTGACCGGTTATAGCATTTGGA` ?
Given back: no (0)

Asked: Say whether `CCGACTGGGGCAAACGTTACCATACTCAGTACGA` shows PBM binding z-score of 0.4 or more.
Given back: no (0)

Asked: State whether the measured PBM binding z-score reaches 0.4, counting equality as reaching it, for `GCTAGCAGGCCATTGGGGTCACTCAATGACGGGC`
Given back: no (0)

Asked: Does PBM binding z-score meet or surpass 0.4 for `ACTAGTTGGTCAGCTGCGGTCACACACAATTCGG` ?
Given back: no (0)

Asked: Test whether the sequence `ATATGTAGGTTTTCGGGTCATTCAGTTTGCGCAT` records PBM binding z-score of 0.4 or higher.
Given back: yes (1)

* * *

Tested on: PXR:RXRa (NR concentration 270 nM, RXRa partner concentration 90 nM)
experiment notes: PBM binding z-score (relative to random genomic background probes); higher = stronger binding; sequences stand for … in GC…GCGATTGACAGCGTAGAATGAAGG
Kindly note that classification relies on PBM binding z-score with these boundaries: group 1 (below 0.3), group 2 (0.3 to below 3), group 3 (3 or more)

Solved cases below.
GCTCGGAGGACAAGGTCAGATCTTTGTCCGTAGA : group 2
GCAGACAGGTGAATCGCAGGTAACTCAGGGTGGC : group 1
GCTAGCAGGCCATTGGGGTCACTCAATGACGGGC : group 3
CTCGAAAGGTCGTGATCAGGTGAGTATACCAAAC : group 3
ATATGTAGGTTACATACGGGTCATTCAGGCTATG : group 3
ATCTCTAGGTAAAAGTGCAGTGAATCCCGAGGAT : group 1
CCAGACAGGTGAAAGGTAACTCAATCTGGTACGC : group 2
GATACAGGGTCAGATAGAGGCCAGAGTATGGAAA : group 3
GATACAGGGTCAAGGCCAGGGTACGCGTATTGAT : group 3
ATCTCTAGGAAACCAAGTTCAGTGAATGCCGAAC : group 2

Asked: Sort into band: `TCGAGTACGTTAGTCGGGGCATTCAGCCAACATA`
Given back: group 1

Asked: Which band does `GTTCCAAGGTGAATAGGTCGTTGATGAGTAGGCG` fall in?
Given back: group 2

Asked: Please indicate the class for `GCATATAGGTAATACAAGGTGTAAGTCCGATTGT` based on its PBM binding z-score.
Given back: group 1

Asked: Lab log: `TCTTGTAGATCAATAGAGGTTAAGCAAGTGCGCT` — assign PBM binding z-score category
Given back: group 3

Asked: Into which category would you place `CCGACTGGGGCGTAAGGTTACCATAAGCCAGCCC` ?
Given back: group 1
